The values you see were collected from patent USRE48335E1.

Each item that follows carries a reported Minimum inhibitory concentration, Pa FADDI-PA025.
Test system: Pseudomonas aeruginosa
Details: Pseudomonas aeruginosa FADDI-PA025; broth microdilution in CAMHB
Positions of bridges follow the written chain, without caps; N, C: chain ends. Non-standard residues stand in square brackets, D forms with d. Residues, ends and D or L forms follow the SMILES beside them. *: point of attachment. Phenylacetyl(3-Cl) = O=C(Cc1cccc(Cl)c1)*; Dab = NCC[C@H](N)C(=O)O; Dap = NC[C@H](N)C(=O)O; PhAc = O=C(Cc1ccccc1)*
parameter: Minimum inhibitory concentration, Pa FADDI-PA025

| compound | tgt | result |
| --- | --- | --- |
| CC(C)C[C@H]1NC(=O)[C@H](CCN)NC(=O)[C@@H](NC(=O)[C@@H](CO)NC(=O)[C@@H](NC(=O)[C@H](CCN)NC(=O)Cc2ccccc2)[C@@H](C)O)CCNC(=O)[C@H]([C@@H](C)O)NC(=O)[C@H](CCN)NC(=O)[C@H](CCN)NC(=O)[C@H]([C@@H](C)O)NC1=O [Compound 12] (PhAc-[Dab]T[dS][Dab][Dab][dL]T[Dab][Dab]T; lactam 4-C) | Pseudomonas aeruginosa | >32 µg/mL |
| CC(C)C[C@H]1NC(=O)[C@H](CCN)NC(=O)[C@@H](NC(=O)[C@H](CN)NC(=O)[C@@H](NC(=O)[C@H](CCN)NC(=O)Cc2cccc(Cl)c2)[C@@H](C)O)CCNC(=O)[C@H]([C@@H](C)O)NC(=O)[C@H](CCN)NC(=O)[C@H](CCN)NC(=O)[C@H]([C@@H](C)O)NC1=O [Compound 61] ({Phenylacetyl(3-Cl)}-[Dab]T[Dap][Dab][Dab][dL]T[Dab][Dab]T; lactam 4-C) | Pseudomonas aeruginosa | >32 µg/mL |
| CC(C)C[C@H]1NC(=O)[C@H](CCN)NC(=O)[C@@H](NC(=O)[C@H](CCN)NC(=O)[C@@H](NC(=O)[C@H](CCN)NC(=O)Cc2ccccc2)[C@@H](C)O)CCNC(=O)[C@H]([C@@H](C)O)NC(=O)[C@H](CCN)NC(=O)[C@H](CCN)NC(=O)[C@H]([C@@H](C)O)NC1=O [Compound 30] (PhAc-[Dab]T[Dab][Dab][Dab][dL]T[Dab][Dab]T; lactam 4-C) | Pseudomonas aeruginosa | >32 µg/mL |

---

System: Enterobacter cloacae
Positions of bridges follow the written chain, without caps; N, C: chain ends. Non-standard residues stand in square brackets, D forms with d. Residues, ends and D or L forms follow the SMILES beside them. *: point of attachment. Benzoyl(4-CF3) = O=C(c1ccc(C(F)(F)F)cc1)*; Octanoyl = CCCCCCCC(=O)*; Dab = NCC[C@H](N)C(=O)O; Abu = CC[C@H](N)C(=O)O; Dap = NC[C@H](N)C(=O)O
parameter: Minimum inhibitory concentration, Ec FADDI-EC001

| compound | result |
| --- | --- |
| CC[C@@H]1NC(=O)[C@@H](CC(C)C)NC(=O)[C@H](CCN)NC(=O)[C@@H](NC(=O)[C@H](CN)NC(=O)[C@@H](NC(=O)[C@H](CCN)NC(=O)c2ccc(C(F)(F)F)cc2)[C@@H](C)O)CCNC(=O)[C@H]([C@@H](C)O)NC(=O)[C@H](CCN)NC(=O)[C@H](CCN)NC1=O [Compound 74] ({Benzoyl(4-CF3)}-[Dab]T[Dap][Dab][Dab][dL][Abu][Dab][Dab]T; lactam 4-C) | <0.125 µg/mL |
| CCCCCCCC(=O)N[C@@H](CCN)C(=O)N[C@H](C(=O)N[C@@H](CCN)C(=O)N[C@H]1CCNC(=O)[C@H]([C@@H](C)O)NC(=O)[C@H](CCN)NC(=O)[C@H](CCN)NC(=O)[C@H](CO)NC(=O)[C@@H](CC(C)C)NC(=O)[C@H](CCN)NC1=O)[C@@H](C)O [Compound 25] (Octanoyl-[Dab]T[Dab][Dab][Dab][dL]S[Dab][Dab]T; lactam 4-C) | <0.125 µg/mL |
| CCCCCCCC(=O)N[C@@H](CCN)C(=O)N[C@H](C(=O)N[C@@H](CN)C(=O)N[C@H]1CCNC(=O)[C@H]([C@@H](C)O)NC(=O)[C@H](CCN)NC(=O)[C@H](CCN)NC(=O)[C@H](CC)NC(=O)[C@@H](CC(C)C)NC(=O)[C@H](CCN)NC1=O)[C@@H](C)O [Compound 46] (Octanoyl-[Dab]T[Dap][Dab][Dab][dL][Abu][Dab][Dab]T; lactam 4-C) | <0.125 µg/mL |
